Give fiber score / MBP score for every item shown.
Test system: E18 rat cortical neuron-glia co-culture
Experiment: fiber score / MBP score (myelination specific beyond OL differentiation) (ratio); higher = more myelination-specific MBP alignment
Details: 5 µM; treatment time: 8 days (DIV5-DIV13)
Numbers only.

compound=CCCc1c(OCCCCc2nnn[nH]2)ccc(C(C)=O)c1O experimental_value=1

Each compound below has a reported value. Please supply its fiber score / MBP score.
1. CN(C)CCC(c1ccc(Br)cc1)c1ccccn1 (configuration not stated)
2. CNC(=C[N+](=O)[O-])NCCSCc1ccc(CN(C)C)o1
3. O=c1cnn([C@@H]2O[C@H](CO)[C@@H](O)[C@H]2O)c(=O)[nH]1

RESULT:
0.693
1.03
0.453

Each compound below has a reported value. Please supply its fiber score / MBP score.
1. CN(C)CCCSc1ccccc1NC(=O)/C=C/c1ccccc1
2. O=c1[nH]c(=O)n([C@H]2C[C@H](O)[C@@H](CO)O2)cc1F
3. COC(=O)C1=C(C)NC(C)=C(C(=O)OCCN(C)Cc2ccccc2)C1c1cccc([N+](=O)[O-])c1 (configuration not stated)
4. CCOC(=O)C1=C(C)NC(C)=C(C(=O)OC)C1c1cccc([N+](=O)[O-])c1 (configuration not stated)
5. CC1(C)O[C@@H]2[C@@H](CO[C@@]3(COS(N)(=O)=O)OC(C)(C)O[C@@H]23)O1 [Topiramate]
6. O=C(O)c1cc(/N=N/c2ccc(S(=O)(=O)Nc3ccccn3)cc2)ccc1O

RESULT:
[0.995, 1.71, 0.824, 1.09, 0.896, 1.17]

====

Test system: E18 rat cortical neuron-glia co-culture
Assay: myelination (MBP fiber length per Olig2+ nucleus), % of 1 µM DAPT response (DMSO = 0) (% of DAPT); higher = more myelination, active = 50 or more
Details: 5 µM; treatment time: 8 days (DIV5-DIV13)
Structures can show the parent of a compound that is named as a salt.
property_name: myelination

compound="OC(CCN1CCCC1)(c1ccccc1)C1CCCCC1 (stereo not drawn)" system_name="E18 rat cortical neuron-glia co-culture" property_name=myelination experimental_value="11.6 (inactive)"
compound=C[C@H]1c2cccc(O)c2C(=O)C2=C(O)[C@]3(O)C(=O)C(C(N)=O)=C(O)[C@@H](N(C)C)[C@@H]3[C@@H](O)[C@@H]21 system_name="E18 rat cortical neuron-glia co-culture" property_name=myelination experimental_value="-0.977 (inactive)"
compound=CCCSc1ccc2[nH]c(NC(=O)OC)nc2c1 system_name="E18 rat cortical neuron-glia co-culture" property_name=myelination experimental_value="-37.4 (inactive)"
compound="NS(=O)(=O)c1cc2c(cc1Cl)NCNS2(=O)=O [Hydrochlorothiazide]" system_name="E18 rat cortical neuron-glia co-culture" property_name=myelination experimental_value="-12.5 (inactive)"
compound="Clc1cccc(Cl)c1NC1=NCCN1 [Clonidine hydrochloride]" system_name="E18 rat cortical neuron-glia co-culture" property_name=myelination experimental_value="-5.88 (inactive)"

Each compound below has a reported value. Please supply its myelination.
1. CCOc1cc(CC(=O)N[C@@H](CC(C)C)c2ccccc2N2CCCCC2)ccc1C(=O)O [Repaglinide]
2. Cc1nnc(SCC2=C(C(=O)O)N3C(=O)[C@@H](NC(=O)Cn4cnnn4)[C@H]3SC2)s1
3. CN1CCN(CCCN2c3ccccc3Sc3ccc(Cl)cc32)CC1

RESULT:
["2.54 (inactive)", "6.84 (inactive)", "-29.6 (inactive)"]
